Assay Info: In-vitro viability assay (MTS)
Format: cell-based
Run Parameters: mouse, bone marrow derived dendritic cells (BMDCs), after 48 h, normalized to untreated cells, read-out: cell viability / proliferation of BMDCs
Test Readout: viability at 48 h (%)
All answers are understood in %, so give the number only.

Using the record for "CC(C)Cn1cnc2c(N)nc3ccccc3c21" , report its viability at 48 h.
250

Entry source: patent US20160114044A1
